Assay Protocol: pI (analytical data, Table 2)
Assay type: physicochemical
Measurement Type: pI
Number only, please.

Input CNCCNC(=O)C1NC(=O)C2NC(=O)C(NC(=O)C3NC(=O)C4NC(=O)C(NC(=O)C(NC)c5ccc(O)c(c5)Oc5cc(O)c(Cl)c4c5)C(O)c4ccc(c(Cl)c4)Oc4cc3cc(c4O)Oc3c(Cl)cc(cc3Cl)C2O)c2ccc(O)c(c2)-c2c(O)cc(O)cc21 (stereo not shown) . Output pI: 7.7

Input CNC1C(=O)NC2C(=O)NC(C(=O)NC3C(=O)NC4C(=O)NC(C(=O)NC(C(=O)NCCN(C)C)c5cc(O)cc(O)c5-c5cc4ccc5O)C(O)c4cc(Cl)c(c(Cl)c4)Oc4cc3cc(c4O)Oc3ccc(cc3Cl)C2O)c2cc(cc(O)c2Cl)Oc2cc1ccc2O (stereo not shown) . Output pI: 7.7

Input CNC1C(=O)NC2C(=O)NC(C(=O)NC3C(=O)NC4C(=O)NC(C(=O)NC(C(N)=O)c5cc(O)cc(OC6OC(CO)C(O)C(O)C6O)c5-c5cc4ccc5O)C(O)c4ccc(c(Cl)c4)Oc4cc3cc(c4OC3OC(C(N)=O)C(O)C(O)C3NC(=O)CCCCCCCCC(C)C)Oc3ccc(cc3)C2O)c2cc(cc(O)c2Cl)Oc2cc1ccc2O (stereo not shown) [Compound 2q, AAJ-271 C1 diamide] . Output pI: 7.3

Input CCCCCCCCCC(=O)NC1C(Oc2c3cc4cc2Oc2c(Cl)cc(cc2Cl)C(O)C2NC(=O)C(NC(=O)C4NC(=O)C4NC(=O)C(NC(=O)C(NC)c5ccc(O)c(c5)Oc5cc(O)c(Cl)c4c5)C(O)c4ccc(c(Cl)c4)O3)c3ccc(O)c(c3)-c3c(OC4OC(CO)C(O)C(O)C4O)cc(O)cc3C(C(N)=O)NC2=O)OC(C(N)=O)C(O)C1O (stereo not shown) [Compound 2j, Ardacin A diamide] . Output pI: 7.2
